Test: compound effects on lung adenocarcinoma cell viability – A549, calcein-AM fluorescence, 48 h, basal, profiling panel (AID 1162); note: test concentration not given here
Details: higher = more signal
Criterion: z-score meeting or surpassing -0.5. Met: 1. Not met: -1.

Ask: Does the compound CN(C)c1ccc(C(O)C2C=CC3C(=O)NC(=O)C3N2Nc2ccccn2)cc1 (stereo not given) have recorded z-score that is -0.5 or more?
Reply: -1

Ask: Does the compound CC(c1ccccc1)C(O)C1C=CC2C(=O)N(C)C(=O)C2N1Nc1ccccc1 (stereo not given) have recorded z-score that is -0.5 or more?
Reply: 1

* * *

Recorded z-score, one value per entry.
Experiment: plasmodial surface anion channel blockers, osmotic lysis – cell-based, P. falciparum Indochina, OD700, 2 h, primary screen (AID 1155);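 note: lysis reports solute entry through the parasite surface anion channel PSAC; channel blockers reduce lysis of infected cells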
Settings: P. falciparum Indochina infected erythrocytes, higher = more signal, called active from +8 up or from −8 down
Active and inactive are the calls of the source.

Below are worked cases with known answers.
compound: C=CCOC(=O)[C@@]1(Cc2ccccc2)C[C@H]2CO[C@H](c3ccc(OC)cc3)N2C1=O
z-score: 0.522 (inactive)
--
compound: COC(=O)[C@@]1(Cc2ccc(F)cc2)[C@H]2c3cc(C(=O)N4CCCC4)n(Cc4ccc(C)c(F)c4F)c3C[C@H]2CN1C(=O)c1ccccc1
z-score: 0.806 (inactive)
--
compound: COC(=O)c1c(CC[C@@H](CO)NC(=O)N2CCC[C@H]2Cn2cc(C3(O)CCCCC3)nn2)oc(C(C)=O)c1C(=O)OC
z-score: 0.092 (inactive)

Ask: Dear colleague, I am looking for the recorded z-score of the following compound: `C=C(COC)C(=O)CC[C@@H](OC(C)=O)c1cccc(OCCO)c1`
Reply: 1.11 (inactive)

Ask: Dear colleague, I am looking for the recorded z-score of the following compound: `CC(C)N1C(=O)c2ccccc2[C@@H](C(=O)NCCN2CCOCC2)[C@@H]1c1ccc(CO)cc1`
Reply: -0.151 (inactive)

Ask: Dear colleague, I am looking for the recorded z-score of the following compound: `C=CC[C@]1(C(=O)N2CCCCC2)N=C(c2ccc(OCCCO)cc2)O[C@H]1c1ccccc1CN=[N+]=[N-]`
Reply: 4.57 (inactive)

Ask: Dear colleague, I am looking for the recorded z-score of the following compound: `[N-]=[N+]=Nc1ccccc1[C@@H]1OC(c2ccc(OCCCO)cc2)=N[C@]1(Cc1ccccc1)C(=O)N1CCCCC1`
Reply: 32.7 (active)

Ask: Dear colleague, I am looking for the recorded z-score of the following compound: `COC(=O)[C@@]1(Cc2ccc(OC)cc2)[C@H]2c3cc(C(=O)N4CCCC4)n(CCc4c[nH]c5ccc(OC)cc45)c3C[C@H]2CN1C(=O)c1ccccc1`
Reply: 0.71 (inactive)

Ask: Dear colleague, I am looking for the recorded z-score of the following compound: CCCC=C(CCC)[C@@H](NS(=O)(=O)CC12CCC(CC1=O)C2(C)C)c1ccc(C(=O)OC)cc1 (stereo not given in full)
Reply: -0.825 (inactive)

Ask: Dear colleague, I am looking for the recorded z-score of the following compound: `CC(C)NC(=O)[C@@]1(c2ccc([N+](=O)[O-])cc2)CC(=O)N(C2CCCCC2)[C@@H]1c1ccc(CO)cc1`
Reply: 0.168 (inactive)

Ask: Dear colleague, I am looking for the recorded z-score of the following compound: `COC(=O)C/C=C/C[C@]1(O)C(=O)N(C)c2ccccc21`
Reply: -0.562 (inactive)

Ask: Dear colleague, I am looking for the recorded z-score of the following compound: `CCOC(=O)C[C@H]1[C@H](OC(=O)c2ccccc2-c2ccccc2)[C@@H](NC(=O)c2ccc3ccccc3c2)c2cc(OCCCO)ccc2N1C(=O)c1ccccc1`
Reply: 0.844 (inactive)

Ask: Dear colleague, I am looking for the recorded z-score of the following compound: `COc1ccc(CCNC(=O)[C@@]2(c3ccc([N+](=O)[O-])cc3)CC(=O)N(C3CCCCC3)[C@@H]2c2ccc(CO)cc2)cc1`
Reply: -0.0966 (inactive)

Ask: Dear colleague, I am looking for the recorded z-score of the following compound: `Cc1ccc(S[C@]2(C(=O)NCC(F)(F)F)CC(=O)N(Cc3cc(C(F)(F)F)cc(C(F)(F)F)c3)[C@@H]2c2ccc(CO)cc2I)cc1`
Reply: -0.0111 (inactive)

Ask: Dear colleague, I am looking for the recorded z-score of the following compound: `NCCCCCNC(=O)[C@H]1C[C@H]2C(=O)N3CCC[C@H]3C(=O)N2[C@H]1c1cccc(OCCO)c1`
Reply: 0.598 (inactive)

* * *

Molecular target: Fibroblast growth factor 10 (Homo sapiens) (UniProt O15520)
Sequence (O15520 whole entry, looked up): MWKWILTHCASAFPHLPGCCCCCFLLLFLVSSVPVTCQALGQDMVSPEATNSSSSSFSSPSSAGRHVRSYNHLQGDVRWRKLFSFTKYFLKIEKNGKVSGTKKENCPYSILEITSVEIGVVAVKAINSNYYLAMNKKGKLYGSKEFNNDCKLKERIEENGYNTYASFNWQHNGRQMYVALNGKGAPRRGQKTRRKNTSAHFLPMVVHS
Experiment: compounds binding fibroblast growth factor 10 – biochemical, small-molecule microarray, 635 nm fluorescence, primary screen (AID 1102)
Settings: FGF10 binding, fluorescence 635 nm, higher = more signal
Recorded composite z-score, one value per entry.
// keep it numeric: no unit symbol after the value

molecule: O=c1cccc(-c2ccc([N+](=O)[O-])cc2)o1
result_type: composite z-score
endpoint_result: 0.274

molecule: O=C1N(Cc2ccccc2)c2ccccc2C[C@]12N=C(c1ccc(OCCCO)cc1)O[C@@H]2c1ccccc1
result_type: composite z-score
endpoint_result: 0.796

molecule: COC(=O)[C@@]1(Cc2ccc(OC)cc2)[C@H]2c3cc(C(=O)N4CCCC4)n(CCO)c3C[C@H]2CN1C(=O)c1ccccc1
result_type: composite z-score
endpoint_result: 0.717

Ask: Dear colleague, I am looking for the recorded composite z-score of the following molecule: `CCOC(=O)C[C@H]1[C@H](OC(=O)Cc2ccc3c(c2)OCO3)[C@@H](NC(=O)C2CCCCC2)c2cc(OCCCO)ccc2N1C(=O)c1ccccc1`
Reply: 0.27

Ask: Dear colleague, I am looking for the recorded composite z-score of the following molecule: COc1cc(OC)c(C(O)C2C=CC3C(=O)N(Cc4ccccc4)C(=O)C3N2n2cnnc2)cc1Br (centres undefined)
Reply: 1.05

Ask: Dear colleague, I am looking for the recorded composite z-score of the following molecule: Cc1cc(C)c(C(O)C2C=CC3C(=O)N(c4ccccc4)C(=O)C3N2Nc2ccccc2F)c(C)c1 (centres undefined)
Reply: 0.119

Ask: Dear colleague, I am looking for the recorded composite z-score of the following molecule: `CCCCCCc1nc(Cc2cc(OC)c(OC)c(OC)c2)cc2c1[Si](C(C)C)(C(C)C)OC2`
Reply: 0.124

Ask: Dear colleague, I am looking for the recorded composite z-score of the following molecule: `CCCC=C(CCC)[C@@H](NC(=O)c1cccs1)c1ccc(C(=O)OC)cc1`
Reply: 1.31

Ask: Dear colleague, I am looking for the recorded composite z-score of the following molecule: `CCOC(=O)C[C@H]1[C@H](OC(=O)c2ccc(C(=O)c3ccccc3)cc2)[C@@H](NC(=O)CC(C)C)c2cc(OCCCO)ccc2N1C(=O)c1ccccc1`
Reply: 0.515

* * *

Assay: viability profiling in RPMI8226 myeloma cells – cell-based, resazurin fluorescence, basal, 24 h, PK04 Diversity Set, profiling panel (AID 1180);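 note: RPMI8826 multiple myeloma cell line at 5000 cells per well; test concentration not given here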
Details: higher = more signal
Recorded z-score, one value per entry.
// keep it numeric: no unit symbol after the value

Below are worked cases with known answers.
molecule: COCCOC(=O)N1C(=O)[C@@]2(c3ccccc31)[C@H](C(=O)NC[C@H](O)c1ccccc1)[C@H]1C(=O)O[C@H](c3ccccc3)[C@H](c3ccccc3)N1[C@@H]2c1ccc(O)cc1
z-score: -0.773
--
molecule: CC1CC/C=C\[C@H]2OC34C=CCN(C(C)C)C(=O)[C@H]3N(CCO)C(=O)[C@@H]4C2C(=O)O1 (stereo not given in full)
z-score: 0.838
--
molecule: CCOC(=O)C[C@H]1[C@H](OC(=O)c2cc3ccccc3oc2=O)[C@@H](NC(=O)CC(C)C)c2cc(OCCCO)ccc2N1C(=O)c1ccc2ccccc2n1
z-score: -0.493
--
molecule: C=CCNC(=O)[C@@H]1[C@H]2C(=O)O[C@H](c3ccccc3)[C@H](c3ccccc3)N2[C@H](c2ccc(OCCO)cc2)[C@@]12C(=O)N(C(=O)OCCOC)c1ccc(C#Cc3ccc(OC)cc3)cc12
z-score: 0.725

Ask: Dear colleague, I am looking for the recorded z-score of the following molecule: `[N-]=[N+]=Nc1ccccc1[C@@H]1OC(c2ccc(OCCCO)cc2)=N[C@]1(Cc1ccccc1)C(=O)N1CCCCC1`
Reply: -3.5

Ask: Dear colleague, I am looking for the recorded z-score of the following molecule: `COC(=O)[C@@H]1N=C(c2ccc(OCCCO)cc2)O[C@@H]1C`
Reply: 0.945

Ask: Dear colleague, I am looking for the recorded z-score of the following molecule: Cc1ccccc1C(O)C1C=CC2C(=O)NC(=O)C2N1Nc1ccccn1 (stereo not given)
Reply: -0.489

Ask: Dear colleague, I am looking for the recorded z-score of the following molecule: `[N-]=[N+]=Nc1ccccc1C[C@]1(C(=O)N2CCOCC2)COC(c2ccc(OCCCO)cc2)=N1`
Reply: 1.02

Ask: Dear colleague, I am looking for the recorded z-score of the following molecule: CCCCC(CC)C(O)C1C=CC2C(=O)N(c3ccccc3)C(=O)C2N1Nc1ccc(C#N)cc1 (stereo not given)
Reply: -0.661

Ask: Dear colleague, I am looking for the recorded z-score of the following molecule: CC(C)C(CO)N1C(=O)[C@@H]2C3C(=O)OCCC/C=C\[C@H]3OC23C=CCN(Cn2nnc4ccccc42)C(=O)[C@@H]13 (stereo not given in full)
Reply: 0.37

Ask: Dear colleague, I am looking for the recorded z-score of the following molecule: `Cc1ccc(S[C@]2(C(=O)NCC(F)(F)F)CC(=O)N(Cc3cc(C(F)(F)F)cc(C(F)(F)F)c3)[C@@H]2c2ccc(CO)cc2I)cc1`
Reply: -2.03

Ask: Dear colleague, I am looking for the recorded z-score of the following molecule: `COC(=O)[C@@]1(Cc2ccccc2)[C@H]2c3cc(C(=O)N(C)C)n(Cc4ccc(C)o4)c3C[C@H]2CN1C(=O)c1ccccc1`
Reply: -3.13

Ask: Dear colleague, I am looking for the recorded z-score of the following molecule: `CCOC(=O)C1=CC[C@@H](c2ccccc2)N(S(=O)(=O)c2ccc(C)cc2)[C@H]1c1ccccc1`
Reply: -1.33

Ask: Dear colleague, I am looking for the recorded z-score of the following molecule: COc1cc2c(cc1O)C(c1cccs1)N(Cc1cc3c(cc1Br)OCO3)CC2 (stereo not given)
Reply: -1.59

Ask: Dear colleague, I am looking for the recorded z-score of the following molecule: `COC(=O)[C@@]1(Cc2ccc(OC)cc2)[C@H]2c3cc(C(=O)N4CCCC4)n(CCc4c[nH]c5ccc(O)cc45)c3C[C@H]2CN1C(=O)c1ccccc1`
Reply: -0.377
